Origin of the recorded values: patent US7381554B2

Substrate specificity: C2/4GnT activity, 10 mM by entry:
target: C2/4GnT (Homo sapiens, UniProt O95395); construct: An expression construct designed to encode amino acid residues 31-438 of C2/4GnT was prepared by PCR using P1 DNA; gp67 secretion signal of vector pAcGP67A (own knowledge of the vector); made in house; host or cells: Sf9 cells (culture supernatant, standard assays); High Five cells (partially purified enzyme, kinetics); experiment: C2/4GnT GlcNAc-transferase activity assay with acceptor/donor substrates; assay type: biochemical; settings: acceptor substrate 10 mM; partially purified media of infected High Five cells; background subtracted
Sequence (O95395 31-438): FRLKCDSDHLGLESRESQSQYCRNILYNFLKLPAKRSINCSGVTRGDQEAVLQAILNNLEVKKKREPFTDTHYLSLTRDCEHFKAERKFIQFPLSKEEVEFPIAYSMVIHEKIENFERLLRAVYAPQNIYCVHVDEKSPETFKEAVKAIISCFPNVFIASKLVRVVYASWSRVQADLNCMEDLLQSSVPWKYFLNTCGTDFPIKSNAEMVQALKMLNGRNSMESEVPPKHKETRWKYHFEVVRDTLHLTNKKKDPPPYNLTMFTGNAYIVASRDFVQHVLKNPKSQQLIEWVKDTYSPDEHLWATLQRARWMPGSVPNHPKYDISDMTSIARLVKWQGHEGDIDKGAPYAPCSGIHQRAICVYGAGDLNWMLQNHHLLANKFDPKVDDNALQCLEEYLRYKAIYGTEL
Form entry: value (nmol/h/mg) — number only.

>  <COMPOUND>
CC(=O)N[C@@H]1[C@@H](O[C@@H]2O[C@H](CO)[C@H](O)[C@H](O)[C@H]2O)[C@@H](O)[C@@H](CO)O[C@@H]1O [β-D-Gal-(1-3)-α-D-GalNAc]

>  <TARGET OR TEST SYSTEM>
C2/4GnT (Homo sapiens, UniProt O95395)

>  <UNIT>
nmol/h/mg

>  <REPORTED MEASUREMENT>
7.3

$$$$
>  <COMPOUND>
CC(=O)NC1C(OC2C(O)C(CO)OC(Oc3ccc([N+](=O)[O-])cc3)C2NC(C)=O)OC(CO)C(O)C1O [β-D-GlcNAc-(1-3)-α-D-GalNAc-1-p-Nph]

>  <TARGET OR TEST SYSTEM>
C2/4GnT (Homo sapiens, UniProt O95395)

>  <UNIT>
nmol/h/mg

>  <REPORTED MEASUREMENT>
7.4

$$$$

Incoming: Which Substrate specificity: C2/4GnT activity, 10 mM is listed for CC(=O)N[C@H]1[C@@H](Oc2ccc([N+](=O)[O-])cc2)O[C@H](CO)[C@H](O)[C@@H]1O[C@@H]1O[C@H](CO)[C@H](O)[C@H](O)[C@H]1O [β-D-Gal-(1-3)-α-D-GalNAc-1-p-Nph] ?
Outgoing: 21.8
